Test system: Enterococcus faecium (ATCC 19634)
assay details: Minimum Inhibitory Concentration, micro-dilution broth
Type: cell-based
protocol conditions: 24 h, 37° C.; read-out: Minimum Inhibitory Concentration E. faceium
property measured: MIC (µM)

compound | system tested | property measured | result operator | recorded value
CCCCCCCCCCCCCC(=O)N(CCCNC(=O)[C@@H](N)CC(C)C)CCCNC(=O)[C@@H](N)CC(C)C.O=C(O)C(F)(F)F.O=C(O)C(F)(F)F [Compound 55] | Enterococcus faecium (ATCC 19634) | MIC | = | 4.2
CCCCCCCCCCCC(=O)N(CCCNC(=O)[C@H](N)Cc1ccccc1)CCCNC(=O)[C@H](N)Cc1ccccc1 [Compound 6] | Enterococcus faecium (ATCC 19634) | MIC | = | 3.3
CCCCCCCCCCCC(=O)N(CCCNC(=O)[C@@H]1CCCN1)CCCNC(=O)[C@@H]1CCCN1.O=C(O)C(F)(F)F.O=C(O)C(F)(F)F [Compound 57] | Enterococcus faecium (ATCC 19634) | MIC | = | 78
N[C@@H](Cc1ccccc1)C(=O)NCCCNCCCNC(=O)[C@@H](N)Cc1ccccc1.O=C(O)C(F)(F)F.O=C(O)C(F)(F)F.O=C(O)C(F)(F)F [Compound 22] | Enterococcus faecium (ATCC 19634) | MIC | > | 250
CCCCCCCCCCCC(=O)N(CCCNC(=O)CN)CCCNC(=O)CN.O=C(O)C(F)(F)F.O=C(O)C(F)(F)F [Compound 42] | Enterococcus faecium (ATCC 19634) | MIC | = | 86
CCCCCCCCCCCCCC(=O)N(CCCNC(=O)[C@H](C)N)CCCNC(=O)[C@H](C)N.O=C(O)C(F)(F)F.O=C(O)C(F)(F)F [Compound 46] | Enterococcus faecium (ATCC 19634) | MIC | = | 9
CCCCCCCCCCCCCCCC(=O)N(CCCNC(=O)[C@@H](N)Cc1ccccc1)CCCNC(=O)[C@@H](N)Cc1ccccc1.O=C(O)C(F)(F)F.O=C(O)C(F)(F)F [Compound 4] | Enterococcus faecium (ATCC 19634) | MIC | = | 8.5
CCCCCCCCCCCCCCCC(=O)N(CCCNC(=O)[C@@H](N)CCCN)CCCNC(=O)[C@@H](N)CCCN.O=C(O)C(F)(F)F.O=C(O)C(F)(F)F [Compound 15] | Enterococcus faecium (ATCC 19634) | MIC | = | 3.2
CCCCCCCCCCCCCC(=O)N(CCCNC(=O)[C@@H](N)CCCN)CCCNC(=O)[C@@H](N)CCCN.O=C(O)C(F)(F)F.O=C(O)C(F)(F)F [Compound 14] | Enterococcus faecium (ATCC 19634) | MIC | = | 5.2
CCCCCCCCCCCCCCCC(=O)N(CCCNC(=O)[C@@H](N)CC(C)C)CCCNC(=O)[C@@H](N)CC(C)C.O=C(O)C(F)(F)F.O=C(O)C(F)(F)F [Compound 56] | Enterococcus faecium (ATCC 19634) | MIC | = | 3.4
CCCCCCCCCCCC(=O)N(CCCNC(=O)[C@@H](N)[C@@H](C)CC)CCCNC(=O)[C@@H](N)[C@@H](C)CC.O=C(O)C(F)(F)F.O=C(O)C(F)(F)F [Compound 51] | Enterococcus faecium (ATCC 19634) | MIC | = | 8
CCCCCCCCCCCCCCCC(=O)N(CCCNC(=O)[C@H](C)N)CCCNC(=O)[C@H](C)N.O=C(O)C(F)(F)F.O=C(O)C(F)(F)F [Compound 47] | Enterococcus faecium (ATCC 19634) | MIC | = | 3

Cited source: patent US20170144969A1
